Numbers sourced from patent US9012651B2.

# experimental_system: human TRPV3 receptors (Homo sapiens (Human), UniProt Q8NET8)
# Sequence (Q8NET8 whole entry): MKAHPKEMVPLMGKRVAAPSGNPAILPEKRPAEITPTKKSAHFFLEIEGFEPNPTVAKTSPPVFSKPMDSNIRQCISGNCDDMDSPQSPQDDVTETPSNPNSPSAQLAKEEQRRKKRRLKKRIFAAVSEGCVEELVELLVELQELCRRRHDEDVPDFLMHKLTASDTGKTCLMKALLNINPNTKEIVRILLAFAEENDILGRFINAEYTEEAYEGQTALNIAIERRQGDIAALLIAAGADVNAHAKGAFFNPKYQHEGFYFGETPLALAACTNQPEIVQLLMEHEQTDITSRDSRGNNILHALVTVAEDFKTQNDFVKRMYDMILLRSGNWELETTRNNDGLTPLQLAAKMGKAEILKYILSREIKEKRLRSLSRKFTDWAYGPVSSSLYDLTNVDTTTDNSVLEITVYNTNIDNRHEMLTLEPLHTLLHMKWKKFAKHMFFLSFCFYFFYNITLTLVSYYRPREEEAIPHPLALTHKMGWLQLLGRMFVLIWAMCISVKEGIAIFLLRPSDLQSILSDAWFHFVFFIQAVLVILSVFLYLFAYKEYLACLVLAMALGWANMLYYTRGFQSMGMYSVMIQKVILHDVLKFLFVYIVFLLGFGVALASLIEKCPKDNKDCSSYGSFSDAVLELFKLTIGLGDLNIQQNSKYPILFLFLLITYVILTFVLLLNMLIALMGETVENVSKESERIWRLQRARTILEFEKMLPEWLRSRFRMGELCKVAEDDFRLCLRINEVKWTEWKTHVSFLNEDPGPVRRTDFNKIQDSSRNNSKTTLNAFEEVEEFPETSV
# experiment_summary: Calcium flux assay (FLIPR TETRA), inhibition of the 2-APB response
# assay_context: recombinant HEK293 cells stably expressing TRPV3, Calcium-4 dye, 2-APB at its EC80
metric_name: IC50 (µM)

a: O[C@@H]1CCCC[C@@H]1NCc1ccnc(-c2ccc(C(F)(F)F)cc2)n1
b: OC[C@H](NCc1ccnc(-c2ccc(C(F)(F)F)cc2)n1)[C@@H](O)c1ccccc1
Dear colleague, could you let me know whether a or b has the lower recorded IC50? Thanks. # respond with the chosen item's label
a

a: CC(C)[C@H](CO)NCc1nc(-c2cccc(C(=O)N3CCCCC3)c2)ccc1F
b: CC(C)[C@H](CO)NCc1nc(-c2ccc3c(ccn3C)c2)ccc1F
c: CC(C)[C@H](CO)NCc1nc(C2CCCCC2)ccc1F
Which order do these items take when sorted by rising IC50? List them. Enter labels, ranked according to the request.
c, b, a

I: CC(C)[C@H](CO)NCc1nc(-c2ccc(OCC(F)(F)F)nc2)ccc1F
II: CC(C)[C@H](CO)NCc1nc(-c2ccc(F)c(C#N)c2)ccc1F
Identify the entry with the larger IC50. Options: I and II # respond with the chosen item's label
II
(II: 0.94 µM, I: 0.59 µM)

a: CC(C)[C@H](CO)NCc1nc(C2CCCC2)ccc1F
b: O[C@H]1CCCC[C@@H]1NCc1ccnc(-c2ccc(C(F)(F)F)cc2)n1
a or b : whose IC50 is greater? State your choice using its label.
b

P: CC(C)[C@H](CO)NCc1nc(C2CCCC3(C2)OCCO3)ccc1F (stereo partly shown)
Q: Cc1ccc(-c2ccc(F)c(CN[C@@H](CO)C(C)C)n2)s1
Hi, I'm comparing two records. Which one has the lower IC50, P or Q ? Which one? Tell me its label.
Q
(Q: 0.38 µM, P: 5.67 µM)
